Tested on: BDF1 mice, s.c. Lewis lung carcinoma, T/C %
Assay: NCI In Vivo Anticancer Drug Screen. Data for tumor model Lewis Lung Carcinoma (subcutaneous) in B6D2F1 (BDF1) mice
Details: endpoint: median survival time; dose: 50.0 mg/kg/injection; schedule: Q01DX009 (ip); vehicle: Klucel (hydroxypropylcellulose) (HPC); higher = longer survival
Inconclusive results are not listed.

Molecule | T/C
Cc1cnc(/C=N\NC(N)=S)c2cccc(N)c12 | 95 % of control
O=C1N(Cl)C(=O)C(c2ccc(Cl)cc2)(c2ccc(Cl)cc2)N1Cl | 101 % of control
FC(F)(F)c1cc(CN(CCCl)CCCl)cc(C(F)(F)F)c1 | 90 % of control
N#C/C(=C\c1ccncc1)c1csc2ccccc12 | 119 % of control
O=P1(NCCCl)OCCCN1CCCl (configuration not stated) | 150 % of control
O=C1CC(c2ccc(O)cc2)CC(=O)C1C(C1CC=CCC1)N(CCCl)CCCl (configuration not stated) | 123 % of control
CC/C(=C(/CC)c1ccc(O)cc1)c1ccc(O)cc1 | 106 % of control
C[C@]12C=CC(=O)C=C1CC[C@@H]1[C@@H]2C(=O)C[C@@]2(C)[C@H]1CC[C@]2(O)C(=O)CO | 88 % of control
CNC(=O)Nc1ccccc1C(=O)NN | 96 % of control
COc1ccc2c(Cc3ccccc3)cncc2c1O | 91 % of control
CC1(C)N=C(N)N=C(N)N1c1cccc(CC(=O)Nc2ccc(S(=O)(=O)F)cc2)c1 | 95 % of control
C=C1C(=O)O[C@@H]2[C@H]3O[C@]3(C)CCC=C(C)CC[C@@H]12 | 93 % of control
